Origin of the recorded values: patent US20210171576A1

The following compounds are listed with their measured Hs RD5 values.
assay.target: human mitochondrial CIpP (HsCIpP) (Homo sapiens)
Construct: made in house; host or cells: E. coli SG1146 (BL21(DE3) ΔclpP::cat)
Sequence (Q16740 57-277): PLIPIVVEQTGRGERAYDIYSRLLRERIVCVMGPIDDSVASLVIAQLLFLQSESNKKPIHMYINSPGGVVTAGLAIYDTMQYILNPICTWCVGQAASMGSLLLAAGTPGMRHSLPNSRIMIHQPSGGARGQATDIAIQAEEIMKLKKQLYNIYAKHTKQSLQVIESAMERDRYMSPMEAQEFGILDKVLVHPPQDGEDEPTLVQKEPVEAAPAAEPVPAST
method.summary: Screen of ADEP analogs against HsCIpP: relative degradation (RD) index, casein-FITC degradation relative to E. coli CIpAP
Type: biochemical
Parameters: key: casein-FITC degradation by HsClpP relative to EcClpAP
test.parameters: RD value at 5 μM of the ADEP analog
Where a SMILES comes first, the peptide text is derived from it. Bridges are numbered along the chain shown (N, C = ends). [ ]: non-standard residue; d: D form. The star is where a group is joined. Octatrienoyl(2E,4E,6E) = C/C=C/C=C/C=C/C(=O)*; Phe(3,5-F2) = N[C@@H](Cc1cc(F)cc(F)c1)C(=O)O; Pip(4S-Me) = C[C@H]1CCN[C@H](C(=O)O)C1; 2Nal = N[C@@H](Cc1ccc2ccccc2c1)C(=O)O; Pro(4R-Me) = C[C@H]1CN[C@H](C(=O)O)C1; Tiq1c(1S) = O=C(O)[C@H]1NCCc2ccccc21; Bta = N[C@@H](Cc1csc2ccccc12)C(=O)O; Heptenoyl(2E) = CCCC/C=C/C(=O)*; Cha = N[C@@H](CC1CCCCC1)C(=O)O; aThr = C[C@H](O)[C@H](N)C(=O)O; Pip = O=C(O)[C@@H]1CCCCN1; X2 = O=C(/C=C/CC1CCCCC1)*; NMeA = CN[C@@H](C)C(=O)O; X1 = CCC/C=C/C=C/C(=O)*; Abu = CC[C@H](N)C(=O)O; X3 = O=C(/C=C/CC1CC1)*; X4 = CCCCC/C=C/C(=O)*
quantity: Hs RD5

- CCCCC/C=C/C(=O)N[C@@H](Cc1ccccc1)C(=O)N[C@H]1COC(=O)[C@@H]2CCCN2C(=O)[C@H](C)NC(=O)[C@H](C)N(C)C(=O)[C@@H]2CCCN2C1=O [ADEP-18] (X4-FSP[NMeA]AP; ester 2-C): 0.72
- CCCC/C=C/C(=O)N[C@@H](Cc1cc(F)cc(F)c1)C(=O)N[C@@H]1C(=O)N2CCC[C@H]2C(=O)N2CC[C@H](C)C[C@H]2C(=O)N[C@@H](C)C(=O)N2C[C@H](C)C[C@H]2C(=O)O[C@H]1C [ADEP-38] ({Heptenoyl(2E)}-[Phe(3,5-F2)][aThr]P[Pip(4S-Me)]A[Pro(4R-Me)]; ester 2-C): 0.89
- CCCC/C=C/C(=O)N[C@@H](Cc1cc(F)cc(F)c1)C(=O)N[C@@H]1C(=O)N2CCC[C@H]2C(=O)N2CCCC[C@H]2C(=O)N[C@@H](C)C(=O)N2C[C@H](C)C[C@H]2C(=O)O[C@H]1C [ADEP-29] ({Heptenoyl(2E)}-[Phe(3,5-F2)][aThr]P[Pip]A[Pro(4R-Me)]; ester 2-C): 0.87
- CCCC/C=C/C(=O)N[C@@H](Cc1csc2ccccc12)C(=O)N[C@H]1COC(=O)[C@@H]2C[C@@H](C)CN2C(=O)[C@H](C)NC(=O)[C@@H]2CCCCN2C(=O)[C@@H]2CCCN2C1=O [ADEP-42] ({Heptenoyl(2E)}-[Bta]SP[Pip]A[Pro(4R-Me)]; ester 2-C): 0.49
- CCCC/C=C/C(=O)N[C@@H](Cc1cc(F)cc(F)c1)C(=O)N[C@H]1COC(=O)[C@@H]2C[C@@H](C)CN2C(=O)[C@H](CC)NC(=O)[C@@H]2CCCCN2C(=O)[C@@H]2CCCN2C1=O [ADEP-25] ({Heptenoyl(2E)}-[Phe(3,5-F2)]SP[Pip][Abu][Pro(4R-Me)]; ester 2-C): 0.92
- CCCC/C=C/C(=O)N[C@@H](Cc1ccccc1)C(=O)N[C@H]1COC(=O)[C@@H]2CCCN2C(=O)[C@H](C)NC(=O)[C@H](C)N(C)C(=O)[C@@H]2CCCN2C1=O [ADEP-01] ({Heptenoyl(2E)}-FSP[NMeA]AP; ester 2-C): 0.70
- C[C@@H]1C[C@H]2C(=O)O[C@@H](C)[C@H](NC(=O)[C@H](Cc3cc(F)cc(F)c3)NC(=O)/C=C/CC3CC3)C(=O)N3CCC[C@H]3C(=O)N3CCCC[C@H]3C(=O)N[C@@H](C)C(=O)N2C1 [ADEP-13] (X3-[Phe(3,5-F2)][aThr]P[Pip]A[Pro(4R-Me)]; ester 2-C): 0.91
- CCCC/C=C/C(=O)N[C@@H](Cc1cc(F)cc(F)c1)C(=O)N[C@H]1COC(=O)[C@@H]2C[C@@H](C)CN2C(=O)[C@H](C)NC(=O)[C@@H]2c3ccccc3CCN2C(=O)[C@@H]2CCCN2C1=O [ADEP-37] ({Heptenoyl(2E)}-[Phe(3,5-F2)]SP[Tiq1c(1S)]A[Pro(4R-Me)]; ester 2-C): 0.86
- C[C@@H]1C[C@H]2C(=O)O[C@@H](C)[C@H](NC(=O)[C@H](Cc3cc(F)cc(F)c3)NC(=O)/C=C/CC3CCCCC3)C(=O)N3CCC[C@H]3C(=O)N3CCCC[C@H]3C(=O)N[C@@H](C)C(=O)N2C1 [ADEP-17] (X2-[Phe(3,5-F2)][aThr]P[Pip]A[Pro(4R-Me)]; ester 2-C): 0.91
- CCC/C=C/C(=O)N[C@@H](Cc1cccc(F)c1)C(=O)N[C@H]1COC(=O)[C@@H]2C[C@@H](C)CN2C(=O)[C@H](C)NC(=O)[C@@H]2CCCCN2C(=O)[C@@H]2CCCN2C1=O [ADEP-20]: 0.90
- CCCC/C=C/C(=O)N[C@@H](CC1CCCCC1)C(=O)N[C@H]1COC(=O)[C@@H]2C[C@@H](C)CN2C(=O)[C@H](C)NC(=O)[C@@H]2CCCCN2C(=O)[C@@H]2CCCN2C1=O [ADEP-21] ({Heptenoyl(2E)}-[Cha]SP[Pip]A[Pro(4R-Me)]; ester 2-C): 0.70
- CCCC/C=C/C(=O)N[C@@H](Cc1ccc2ccccc2c1)C(=O)N[C@H]1COC(=O)[C@@H]2C[C@@H](C)CN2C(=O)[C@H](C)NC(=O)[C@@H]2CCCCN2C(=O)[C@@H]2CCCN2C1=O [ADEP-43] ({Heptenoyl(2E)}-[2Nal]SP[Pip]A[Pro(4R-Me)]; ester 2-C): 0.55
- CCC/C=C/C=C/C(=O)N[C@@H](Cc1ccccc1)C(=O)N[C@H]1COC(=O)[C@@H]2C[C@@H](C)CN2C(=O)[C@H](C)NC(=O)[C@H](C)N(C)C(=O)[C@@H]2CCCN2C1=O [ADEP-04] (X1-FSP[NMeA]A[Pro(4R-Me)]; ester 2-C): 0.78
- C/C=C/C=C/C=C/C(=O)N[C@@H](Cc1ccccc1)C(=O)N[C@H]1COC(=O)[C@@H]2CCCN2C(=O)[C@H](C)NC(=O)[C@H](C)N(C)C(=O)[C@@H]2CCCN2C1=O [ADEP-08] ({Octatrienoyl(2E,4E,6E)}-FSP[NMeA]AP; ester 2-C): 0.52
- CCCC/C=C/C(=O)N[C@H](Cc1ccccc1)C(=O)N[C@H]1COC(=O)[C@@H]2CCCN2C(=O)[C@H](C)NC(=O)[C@@H]2CCCCN2C(=O)[C@@H]2CCCN2C1=O [ADEP-02]: 0.88
